- Measurement Protocol: NCI Yeast Anticancer Drug Screen. Data for the mec2-1 strain (AID 157)
- Assay Setup: S. cerevisiae mec2-1 strain, at 50.0 µM (retest, dose inferred, filed as 5.0), active compounds read high
About 79,000 compounds went through this panel and 15% of them were active in at least one assay; those are over-represented in the sample as a whole.
Examples of molecules with documented growth inhibition follow.
Report the value in % with no unit label.

Some molecules with recorded growth inhibition:
For this molecule ( `CCCOC(=O)C#CC(=O)OCCC` ), measured growth inhibition is 99

Kindly note the recorded growth inhibition for CCCCCCCCCCCCCCCCCCOC(=O)C(N)Cc1ccccc1 (centres undefined) , which is -5

New cases:
Record `CC(C)SC(=S)Nc1ccc(Cl)c([N+](=O)[O-])c1` , field growth inhibition: 99

growth inhibition recorded for this molecule, `Cc1c[nH]c2nc(C)n(-c3ccccc3)c(=N)c12` , is -3

// growth inhibition value for O=C(CCCCOCCCCC(=O)OCC1CCCO1)OCC1CCCO1 (centres undefined) : 2

molecule `Clc1ccc(Oc2nc(Cl)nc3[nH]ncc23)cc1` , growth inhibition observed: 58

The molecule identified as `CC(C)NC(=O)OCCN=C1c2ccccc2CCc2ccccc21` registered its growth inhibition at 96

Per the records, this molecule ( `O=C(CN1CCCC1)Nc1nc(-c2ccc(Cl)cc2)cs1` ) has growth inhibition equal to 53

----------
Catalogue of compounds with associated growth inhibition
- Measurement Protocol: NCI Yeast Anticancer Drug Screen. Data for the sgs1 mgt1 strain (AID 161);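 note: 0% = growth of cultures given vehicle only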
- Assay Setup: S. cerevisiae sgs1 mgt1 strain, at 5.0 µM (retest, dose inferred, filed as 0.5), active compounds read high
This is part of a sample that, as a whole, favours compounds with a hit. Of some 79,000 tested, about 15% had one in any assay. The source made the active and inactive calls. Rule as the data show it: active = growth inhibition above about 70%; inactive = the rest.

Please review the following examples before continuing.
Measured growth inhibition, `Nc1ncnc2c1c(-c1ccccc1)cn2-c1ccc(I)cc1` : 65% (inactive)

Recorded result, O=C1c2ccccc2SCC12OC2c1ccc(Cl)cc1 (configuration not stated) , growth inhibition: 16% (inactive)

// CC(Nc1ccc(S(=O)(=O)Nc2ncccn2)cc1)c1ccc2cccnc2c1O (configuration not stated) : growth inhibition value = 11% (inactive)

Entry CC1(C)OC(C(COC(=O)c2ccc([N+](=O)[O-])cc2)OS(=O)(=O)c2ccc([N+](=O)[O-])cc2)C(C(SCc2ccccc2)SCc2ccccc2)O1 (configuration not stated) ; growth inhibition = 4% (inactive)

# growth inhibition of `CC(=O)Nc1ccc(Nc2ccc(C(=C3C=CC(=[N+](C)CCC#N)C=C3)c3ccc(N(C)CCC#N)cc3)cc2)cc1` = 44% (inactive)

Further cases:
# growth inhibition (compound: COC(=O)Nc1nc2ccc(C(C)(O)c3cccs3)cc2[nH]1 (configuration not stated) ) is 3% (inactive)

Given item `Cn1c2ccccc2c2cc3cnccc3cc21` , the value recorded as its growth inhibition is -57% (inactive)

----------
- Measurement Protocol: NCI Yeast Anticancer Drug Screen. Data for the sgs1 mgt1 strain (AID 161);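 note: 0% = growth of cultures given vehicle only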
- Assay Setup: S. cerevisiae sgs1 mgt1 strain, at 50.0 µM (retest, dose inferred, filed as 5.0)
The panel holds about 79,000 compounds, 15% with a hit somewhere; the sample as a whole holds those more often. The source made the active and inactive calls. Cut-off read from the data, not from the text of the source: active = growth inhibition above about 70%; inactive = the rest.
// allowed return values: t for active, f for inactive

Challenge: What call does the record list for CN1CC[N+](C)(Cc2ccc(C[N+]3(C)CC[N+](C)(Cc4ccc(CCl)cc4)CC3)cc2)CC1 (configuration not stated) ?
Response given: t

Challenge: Answer briefly: the call reported for `Cc1nc(Nc2ccc(Cl)cc2)sc1C(=O)NNC(=S)NN` in this assay.
Response given: t

Challenge: Write down the call the test reported for this compound. Item: `O=C(CCN1CCOCC1)c1ccc(Oc2ccc(F)cc2)cc1`
Response given: t

Challenge: State the result this test recorded for `COC(=O)c1ccc(NCc2c(O)ccc(O)c2Br)cc1Cl` .
Response given: t

Challenge: Could you check what this test reported for `CC(C)Cn1cnc2c(SCc3cccc(F)c3)nc(N)nc21` ?
Response given: f

---
Challenge: Dear colleague, could you share the recorded outcome for `O=C1/C(=C(/Br)I)c2ccccc2-c2ccccc21` when you have a moment?
Response given: t

Challenge: // return assay outcome for `Cc1cccc(C)c1NC(=O)CCc1nnc(N)n1N`
Response given: f
